System: Musca domestica
Test description: Knockdown test, Musca domestica (houseflies - adults)
Assay type: in vivo
Conditions: 250 ppm, cotton wool/sugar, 4 hours, read-out: grading of knockdown, MD/KD
Examples of molecules with documented pest or weed control at 250 ppm follow.

The cases that follow already have their pest or weed control at 250 ppm on record.
Fc1ccc(COCC(c2ccc3c(c2)CCC3)C(F)(F)F)cc1Oc1ccccc1 (centres unmarked) [Compound 19]	80 to 100%
CCOc1ccc(C(Cl)(COCc2ccc(F)c(Oc3ccccc3)c2)C(F)(F)F)cc1 (centres unmarked) [Compound 40]	80 to 100%
CCOc1ccc(C(Cl)(COCc2coc(Cc3ccccc3)c2)C(F)(F)F)cc1 (centres unmarked) [Compound 45]	80 to 100%

Ask | Fill in the recorded pest or weed control at 250 ppm for this molecule, with Musca domestica as test system: CCOc1ccc(C(Cl)(COCc2c(F)c(F)c(C)c(F)c2F)C(F)(F)F)cc1 (centres unmarked) [Compound 39]
Reply | < 50%

Ask | Fill in the recorded pest or weed control at 250 ppm for this molecule, with Musca domestica as test system: CCOc1ccc(C(COCc2ccc(F)c(Oc3ccccc3)c2)(OC)C(F)(F)F)cc1 (centres unmarked) [Compound 150]
Reply | < 50%

Ask | Fill in the recorded pest or weed control at 250 ppm for this molecule, with Musca domestica as test system: CCOc1ccc(C(F)(COCc2c(F)c(F)c(C)c(F)c2F)C(F)(F)F)cc1 (centres unmarked) [Compound 78]
Reply | < 50%

Ask | Fill in the recorded pest or weed control at 250 ppm for this molecule, with Musca domestica as test system: Fc1ccc(C(COCc2ccc(F)c(Oc3ccccc3)c2)C(F)(F)F)cc1 (centres unmarked) [Compound 18]
Reply | 80 to 100%

Ask | Fill in the recorded pest or weed control at 250 ppm for this molecule, with Musca domestica as test system: CCOc1ccc(C(COCc2cccc(Oc3ccc(Cl)cc3)c2)C(F)(F)F)cc1 (centres unmarked) [Compound 3]
Reply | 80 to 100%

Ask | Fill in the recorded pest or weed control at 250 ppm for this molecule, with Musca domestica as test system: CCOc1ccc(C(O)(COCc2ccc(F)c(Oc3ccccc3)c2)C(F)(F)F)cc1 (centres unmarked) [Compound 113]
Reply | 80 to 100%

Ask | Fill in the recorded pest or weed control at 250 ppm for this molecule, with Musca domestica as test system: CCOc1ccc(C(F)(COCc2ccc(F)c(Oc3ccccc3)c2)C(F)(F)F)cc1 (centres unmarked) [Compound 77]
Reply | 80 to 100%

Ask | Fill in the recorded pest or weed control at 250 ppm for this molecule, with Musca domestica as test system: CCOc1ccc(C(COCc2cccc(Oc3ccc(F)cc3F)c2)C(F)(F)F)cc1 (centres unmarked) [Compound 10]
Reply | 80 to 100%

Ask | Fill in the recorded pest or weed control at 250 ppm for this molecule, with Musca domestica as test system: CCOc1ccc(C(Cl)(COCc2cccc(Oc3ccc(Cl)cc3)c2)C(F)(F)F)cc1 (centres unmarked) [Compound 42]
Reply | 80 to 100%

Ask | Fill in the recorded pest or weed control at 250 ppm for this molecule, with Musca domestica as test system: CCOc1ccc(C(COCc2cccc(Oc3ccc(Br)cc3)c2)C(F)(F)F)cc1 (centres unmarked) [Compound 9]
Reply | 80 to 100%

Ask | Fill in the recorded pest or weed control at 250 ppm for this molecule, with Musca domestica as test system: CCOc1ccc(C(O)(COCc2cccc(Oc3ccccc3)c2)C(F)(F)F)cc1 (centres unmarked) [Compound 112]
Reply | 50 to 79%
